- Test system: Tetranychus urticae
- procedure-details: Acaricidal activity against Tetranychus urticae (two-spotted spider mite) assessed as mortality at 500 ppm
- Format: functional
- condition-context: Tetranychus urticae
Entries and their mortality at 500 ppm

- compound: "CN(C)C1CSSC1.O=C(O)C(=O)O [NEREISTOXIN HYDROGEN OXALATE]"
  measurement-units: "%"
  mortality at 500 ppm: 50
- compound: "CN(C)C[C@H]1CS[C@@](C#N)(c2ccc(Cl)cc2)SC1"
  measurement-units: "%"
  mortality at 500 ppm: 90
- compound: "CN(C)C[C@H]1CS[C@](C#N)(c2ccc(Cl)cc2)SC1"
  measurement-units: "%"
  mortality at 500 ppm: 70
- compound: "CN(C)CC1CSC(C(=O)c2ccccc2)(C(=O)c2ccccc2)SC1.O=C(O)C(=O)O"
  measurement-units: "%"
  mortality at 500 ppm: 100
- compound: "CCC(=O)SCC(CSC(=O)CC)CN(C)C.O=C(O)C(=O)O"
  measurement-units: "%"
  mortality at 500 ppm: 100

The reported numbers originate from ChEMBL document CHEMBL3045009.
